# key: entry, value: normalized RNA/DNA level with ligand (log10)
B1: library; a variant is named by its letters at N, in order (parent)
chain: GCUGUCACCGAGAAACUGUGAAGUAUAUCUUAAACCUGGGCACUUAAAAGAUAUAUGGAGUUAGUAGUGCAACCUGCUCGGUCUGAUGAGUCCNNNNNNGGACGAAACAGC

Variants of: B1
Assay: normalized RNA/DNA level with ligand (relative to sTRSVctl = 100) (log10 (% of sTRSVctl)); HEK293T; ligand: cyclic di-GMP (c-di-GMP-II aptamer); ligand concentration (+) RNA-Seq: 1 mM; higher = less ribozyme self-cleavage, higher mRNA level
Conditions: reporter: mCherry (pCS4076), ligand present: yes
Could you keep your reply to the number by itself?

Some solved cases for reference:
mutationCode | value
GAAGAG | 1.71
AGAGAG | 1.64

Incoming: Which normalized RNA/DNA level with ligand (log10) value is on record for AAGAUU ?
Outgoing: 1.8

Incoming: Thanks! And GCGGUA ?
Outgoing: 1.69

Incoming: Thanks! And AUGAGG ?
Outgoing: 1.73

Incoming: Thanks! And AGUCAU ?
Outgoing: 1.85

Incoming: Thanks! And CACUAU ?
Outgoing: 1.72

Incoming: Thanks! And UACGCG ?
Outgoing: 1.9

Incoming: Thanks! And UAACGA ?
Outgoing: 1.76

Incoming: Thanks! And UUUGAG ?
Outgoing: 1.83

Incoming: Thanks! And CUUAAC ?
Outgoing: 1.8

Incoming: Thanks! And GCGGUU ?
Outgoing: 1.75

Incoming: Thanks! And GUGGCA ?
Outgoing: 1.91

Incoming: Thanks! And UGCCGG ?
Outgoing: 1.86

Incoming: Thanks! And AGUUGG ?
Outgoing: 1.8

Incoming: Thanks! And ACCUAU ?
Outgoing: 1.79

The values you see were collected from the supplement of paper PMC6757056.
